B1: glmS ribozyme (parent)
chain: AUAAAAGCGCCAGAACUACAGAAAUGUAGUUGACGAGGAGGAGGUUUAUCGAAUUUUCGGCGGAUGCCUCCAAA

Variants of: B1
Assay info: self-cleavage kobs at 640 uM GlcN6P; higher = faster cleavage; RNA array
Test context: with glucosamine-6-phosphate
Variants at the floor of the assay were thinned out.
Entry flag: satisfied if self-cleavage kobs at 640 uM GlcN6P reaches 0.0001 s⁻¹; not satisfied if it does not.

A selection of reference data follows.
Sequence record | Cat
AUAAAAGCGCCAGAACUACAGAAAUGUACUUGACGAGGAGGAGGUUUAUCGAAUUUUCGUAGGAUGCCUCCAAA [G29C G60U C61A] | not satisfied
AUAAAAGCGCCAGAACUACAGAAAUGUAGUUGACGAAGAGGAGGUUUAUCGAAUUUUCGGCGGAUGCCUCAAAA [G37A C71A] | satisfied
AUAAAAGCGCCAGAACUACAGAAAUGUAGUGGACGACGAGGAGGUUUAUCGAAUUUUCGGCGGAUGCCGCCAAA [U31G G37C U69G] | not satisfied

**Q:** For this variant, is measured self-cleavage kobs at 640 uM GlcN6P 0.0001 s⁻¹ or higher? AUAAAAGCGCUAGAACUACAGAAAUGUAGUUGACGAGGAGGAGGUUUAUCGAAUUUUCGGCGGAUGCCUCAAAA [C11U C71A]
**A:** satisfied

**Q:** Input AUAAAAGCGCCAGAACUACAGAAAUGUAGUUGACGAGGAGGAUGUUUAUCGAAUUUUCGGUGGAUGCUUCCAAA [G43U C61U C68U]
**A:** not satisfied
